- Study System: c-Abl (Homo sapiens, UniProt P00519)
- Construct: The His-tagged kinase domain of c-Abl is cloned and expressed in the baculovirus/Sf9 system; His; made in house; host or cells: baculovirus/Sf9
- Sequence (P00519 242-493 limits assumed): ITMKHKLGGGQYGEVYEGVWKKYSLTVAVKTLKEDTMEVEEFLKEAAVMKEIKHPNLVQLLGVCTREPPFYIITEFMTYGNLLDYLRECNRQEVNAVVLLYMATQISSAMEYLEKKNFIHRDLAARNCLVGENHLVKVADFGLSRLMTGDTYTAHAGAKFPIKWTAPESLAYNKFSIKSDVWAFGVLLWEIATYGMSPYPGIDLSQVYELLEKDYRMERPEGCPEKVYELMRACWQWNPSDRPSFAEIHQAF
- Protocol Notes: Test for activity against c-Abl protein tyrosine kinase (filter binding assay)
- Type: biochemical
Recorded inhibition at 10 µM by entry
Please respond with the number in % and leave the unit unwritten.

Illustrative cases are given below, each with its answer.
{"columns": ["Chemical Smiles", "Recorded Number"],
 "data": [
  ["Cc1ccc(C(=O)Nc2cccc(Cl)c2)cc1Nc1nccc(-c2cccnc2)n1", 90],
  ["CCOC(=O)Cc1csc(NC(=O)c2ccc(C)c(Nc3nccc(-c4cccnc4)n3)c2)n1", 42],
  ["CCOCCNC(=O)c1ccc(C)c(Nc2nccc(-c3cccnc3)n2)c1", 40]
]}

Form: compound = CCN(CC)C(=O)c1ccc(C)c(Nc2nccc(-c3cccnc3)n2)c1 ; inhibition at 10 µM = 68

Lab note: measured inhibition at 10 µM of Cc1ccc(C(=O)N[C@H](C)C(=O)OC(C)(C)C)cc1Nc1nccc(-c2cccnc2)n1 was 97

get_value(item= Cc1ccc(C(=O)N2CCC(N3CCCCC3)CC2)cc1Nc1nccc(-c2cccnc2)n1 , readout=inhibition at 10 µM) returns 1

Where do these numbers come from? They come from patent US7956053B2.
